# test_target: human DPP8 (Homo sapiens)
# Sequence (Q6V1X1 whole entry): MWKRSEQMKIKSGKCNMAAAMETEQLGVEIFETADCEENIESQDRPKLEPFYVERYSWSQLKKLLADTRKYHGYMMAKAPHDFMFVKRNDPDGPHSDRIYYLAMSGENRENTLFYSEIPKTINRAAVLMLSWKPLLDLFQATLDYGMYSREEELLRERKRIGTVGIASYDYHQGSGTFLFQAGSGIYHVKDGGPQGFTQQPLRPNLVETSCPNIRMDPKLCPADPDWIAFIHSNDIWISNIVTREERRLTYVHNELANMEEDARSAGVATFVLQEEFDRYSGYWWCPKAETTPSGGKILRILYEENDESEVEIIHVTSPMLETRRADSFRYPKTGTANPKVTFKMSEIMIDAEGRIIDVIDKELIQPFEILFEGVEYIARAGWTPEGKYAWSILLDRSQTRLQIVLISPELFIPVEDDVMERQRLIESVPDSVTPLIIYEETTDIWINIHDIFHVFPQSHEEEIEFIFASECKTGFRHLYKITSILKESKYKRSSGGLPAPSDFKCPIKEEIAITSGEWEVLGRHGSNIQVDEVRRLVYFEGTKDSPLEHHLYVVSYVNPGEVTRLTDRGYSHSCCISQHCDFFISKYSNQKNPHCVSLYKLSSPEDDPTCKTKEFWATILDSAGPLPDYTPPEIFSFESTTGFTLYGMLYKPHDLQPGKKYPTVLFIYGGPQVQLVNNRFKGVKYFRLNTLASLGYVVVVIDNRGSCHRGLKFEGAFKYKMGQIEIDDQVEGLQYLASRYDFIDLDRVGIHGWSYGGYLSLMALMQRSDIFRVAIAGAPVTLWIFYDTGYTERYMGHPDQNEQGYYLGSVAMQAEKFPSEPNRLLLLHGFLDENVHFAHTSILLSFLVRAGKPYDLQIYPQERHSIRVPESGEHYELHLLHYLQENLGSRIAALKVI
# experimental_details: Steady-state inhibition of isolated cloned DPP8 at 37°C (gly-pro-pNA)
# experimental_context: human, 37°C, gly-pro-pNA; mean ± SD (n)
observation_type: pKi
Please treat pKi as minus the base-10 logarithm of the molar concentration.

Problem: Please give measured pKi of the following entry: N#C[C@@H]1C[C@@H]2C[C@@H]2N1C(=O)[C@@H](N)C12CC3CC(O)(CC(O)(C3)C1)C2 [5-hydroxysaxagliptin]
Solution: 5.60

----------
# test_target: human DPP9 (Homo sapiens)
# Sequence (Q86TI2 whole entry): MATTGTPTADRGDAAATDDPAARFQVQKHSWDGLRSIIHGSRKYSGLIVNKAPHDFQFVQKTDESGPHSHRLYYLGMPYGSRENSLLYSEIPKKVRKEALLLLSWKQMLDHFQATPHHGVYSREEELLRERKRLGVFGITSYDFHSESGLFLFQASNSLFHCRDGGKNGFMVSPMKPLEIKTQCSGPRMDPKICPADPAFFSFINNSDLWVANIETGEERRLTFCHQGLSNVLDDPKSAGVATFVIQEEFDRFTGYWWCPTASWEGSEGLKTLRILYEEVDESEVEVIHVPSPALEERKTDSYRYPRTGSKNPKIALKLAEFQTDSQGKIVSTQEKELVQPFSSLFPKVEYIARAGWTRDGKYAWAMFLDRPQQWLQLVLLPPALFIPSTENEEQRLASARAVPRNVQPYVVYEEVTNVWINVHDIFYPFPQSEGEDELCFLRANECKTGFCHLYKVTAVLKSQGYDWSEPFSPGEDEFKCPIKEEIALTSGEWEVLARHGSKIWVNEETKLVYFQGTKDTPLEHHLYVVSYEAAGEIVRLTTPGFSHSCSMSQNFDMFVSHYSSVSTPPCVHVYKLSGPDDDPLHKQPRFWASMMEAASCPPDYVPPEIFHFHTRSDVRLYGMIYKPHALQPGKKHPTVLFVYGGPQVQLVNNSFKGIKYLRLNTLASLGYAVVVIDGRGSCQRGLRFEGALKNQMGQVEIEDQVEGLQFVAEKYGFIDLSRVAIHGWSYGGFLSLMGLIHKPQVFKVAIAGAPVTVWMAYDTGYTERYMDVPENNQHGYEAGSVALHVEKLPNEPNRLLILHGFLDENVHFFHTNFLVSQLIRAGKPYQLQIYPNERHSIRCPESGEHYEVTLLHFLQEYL
# experimental_details: Steady-state inhibition of isolated cloned DPP9 at 37°C (gly-pro-pNA)
# experimental_context: human, 37°C, gly-pro-pNA; mean ± SD (n)
observation_type: Ki (nM)
Just the number in nM, nothing appended.

Problem: For the compound N#C[C@@H]1C[C@@H]2C[C@@H]2N1C(=O)[C@@H](N)C12CC3CC(O)(CC(O)(C3)C1)C2 [5-hydroxysaxagliptin] , give its reported Ki.
Solution: 423
